- System: UISO cells (VN-MCC)
- Protocol notes: qHTS cell viability (CellTiter-Glo, 72 h; primary and follow-up small molecule screen)
- Type: cell-based, human
- Stated conditions: UISO, 72h, Log (M) -5.33646
Reported Percent viability values for a set of compounds

Compound | Percent viability (%)
CCn1cc(-c2ccnc3[nH]c(-c4cccc(CN(C)C)c4)cc23)c(-c2ccc(NC(=O)N(C)C)cc2)n1 [GSK-1070916A, reference compound] | 0.3
Cc1cc(Nc2cc(N3CCN(C)CC3)nc(Sc3ccc(NC(=O)C4CC4)cc3)n2)[nH]n1 [Tozasertib, reference compound] | 29.1
O=C(Nc1cccc(Cl)c1)Nc1ncc(CCNc2ncnc3ccsc23)s1 [SNS-314, reference compound] | 21.7
CCS(=O)(=O)c1cccc(-c2cc(C(=O)NC3CCN(C)CC3)c(C)c3[nH]c4ncc(C)cc4c23)c1 [TAK-901, reference compound] | 2.3
